TARGET_SYSTEM: T1, human RXFP1 (human, UniProt Q9HBX9 1-757)
T1 sequence (looked up): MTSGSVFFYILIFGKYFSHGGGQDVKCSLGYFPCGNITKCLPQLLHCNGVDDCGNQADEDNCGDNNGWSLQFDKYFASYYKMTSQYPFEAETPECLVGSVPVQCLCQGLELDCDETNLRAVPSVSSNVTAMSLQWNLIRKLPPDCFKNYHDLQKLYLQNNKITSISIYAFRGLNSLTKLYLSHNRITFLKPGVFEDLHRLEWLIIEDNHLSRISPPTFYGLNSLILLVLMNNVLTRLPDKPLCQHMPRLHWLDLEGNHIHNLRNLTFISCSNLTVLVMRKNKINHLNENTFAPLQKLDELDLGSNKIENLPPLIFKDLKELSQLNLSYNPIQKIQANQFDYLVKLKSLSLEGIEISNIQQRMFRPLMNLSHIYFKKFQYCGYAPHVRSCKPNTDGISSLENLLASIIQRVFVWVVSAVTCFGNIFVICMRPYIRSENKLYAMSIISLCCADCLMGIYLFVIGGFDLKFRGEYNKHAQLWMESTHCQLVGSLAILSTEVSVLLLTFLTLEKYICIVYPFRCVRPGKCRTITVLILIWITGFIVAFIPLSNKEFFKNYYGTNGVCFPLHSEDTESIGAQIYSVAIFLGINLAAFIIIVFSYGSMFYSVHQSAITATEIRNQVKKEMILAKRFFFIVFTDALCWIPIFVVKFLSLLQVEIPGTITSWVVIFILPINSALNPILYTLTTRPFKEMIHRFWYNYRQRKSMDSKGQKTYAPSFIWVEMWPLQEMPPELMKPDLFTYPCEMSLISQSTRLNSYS
TEST_DESCRIPTION: cell-based or functional assay
ENDPOINT: THP1 (endogenous RXFP1) cAMP EC50 (nM)
Entry rule: numbers only, all in nM.

>  <BINDER>
SEQ ID NO: 317 (Fc fusion) DKTHTCPPCPAPEAAGGPSVFLFPPKPKDTLMISRTPEVTCVVVDVSHEDPEVKFNWYVDGVEVHNAKTKPREEQYNSTYRVVSVLTVLHQDWLNGKEYKCKVSNKALAAPIEKTISKAKGQPREPQVYTLPPSRDELTKNQVSLTCLVKGFYPSDIAVEWESNGQPENNYKTTPPVLDSDGSFFLYSKLTVDKSRWQQGNVFSCSVLHEALHSHYTQKSLSLSPGGGSDSWQEEVIKLCGRELVRAQIAICGKSTGGGEGGGEGGGEGRQLYSALANKCCHVGCTKRSLAQFC

>  <MEASUREMENT_UNITS>
nM

>  <THP1 (endogenous RXFP1) cAMP EC50>
63

$$$$

QUERY: Given SEQ ID NO: 496 (Fc fusion) DKTHTCPPCPAPEAAGGPSVFLFPPKPKDTLMISRTPEVTCVVVDVSHEDPEVKFNWYVDGVEVHNAKTKPREEQYNSTYRVVSVLTVLHQDWLNGKEYKCKVSNKALAAPIEKTISKAKGQPREPQVYTLPPSRDELTKNQVSLTCLVKGFYPSDIAVEWESNGQPENNYKTTPPVLDSDGSFFLYSKLTVDKSRWQQGNVFSCSVLHEALHSHYTQKSLSLSPGKGGSDSWKEEVIKLCGRELVRAQIAICGKSTASDAAGANANAGARQLYSALANKCCHVGCTKRSLARFC , state its recorded THP1 (endogenous RXFP1) cAMP EC50.
RESULT: 2

QUERY: Given SEQ ID NO: 104 (Fc fusion) DKTHTCPPCPAPEAAGGPSVFLFPPKPKDTLMISRTPEVTCVVVDVSHEDPEVKFNWYVDGVEVHNAKTKPREEQYNSTYRVVSVLTVLHQDWLNGKEYKCKVSNKALAAPIEKTISKAKGQPREPQVYTLPPSRDELTKNQVSLTCLVKGFYPSDIAVEWESNGQPENNYKTTPPVLDSDGSFFLYSKLTVDKSRWQQGNVFSCSVLHEALHSHYTQKSLSLSPGEGGSDSWQEEVIKLCGRELVRAQIAICGQSTASDAAGAQAQAGARQLYSALANKCCHVGCTKRSLAQFC , state its recorded THP1 (endogenous RXFP1) cAMP EC50.
RESULT: 11

QUERY: Given SEQ ID NO: 86 (Fc fusion) DKTHTCPPCPAPEAAGGPSVFLFPPKPKDTLMISRTPEVTCVVVDVSHEDPEVKFNWYVDGVEVHNAKTKPREEQYNSTYRVVSVLTVLHQDWLNGKEYKCKVSNKALAAPIEKTISKAKGQPREPQVYTLPPSRDELTKNQVSLTCLVKGFYPSDIAVEWESNGQPENNYKTTPPVLDSDGSFFLYSKLTVDKSRWQQGNVFSCSVLHEALHSHYTQKSLSLSPGKGGSDSWQEEVIKLCGRELVRAQIAICGKSTASDAAGADADAGARQLYSALANKCCHVGCTKRSLAQFC , state its recorded THP1 (endogenous RXFP1) cAMP EC50.
RESULT: 30

FYI, the data here is from patent US20250333467A1.
